Biological target: T1, huNectin4-His (human, UniProt Q96NY8 32-349)
T1 construct: Immobilized on the SPR chip; also called humanNectin4; human Nectin4; not shown: His tag
T1 sequence (looked up): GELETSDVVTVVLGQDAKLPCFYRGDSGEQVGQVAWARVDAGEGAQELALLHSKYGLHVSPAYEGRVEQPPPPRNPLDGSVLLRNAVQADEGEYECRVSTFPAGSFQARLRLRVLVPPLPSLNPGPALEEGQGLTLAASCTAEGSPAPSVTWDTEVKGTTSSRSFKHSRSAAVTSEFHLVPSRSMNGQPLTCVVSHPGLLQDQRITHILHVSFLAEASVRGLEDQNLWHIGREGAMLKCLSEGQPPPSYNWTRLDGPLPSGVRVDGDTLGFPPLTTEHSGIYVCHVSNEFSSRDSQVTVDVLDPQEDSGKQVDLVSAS
Assay: SPR, huNectin4-His immobilized, pH 6.5
Here, each record is paired with measured kon data.
Unit M⁻¹ s⁻¹ implied. Number only.

| Binder | kon / M⁻¹ s⁻¹ |
| --- | --- |
| BAP-143-06-33-16 (antibody, V domains shown, Used as a conjugate with a linker payload (CAB ADC)) VH: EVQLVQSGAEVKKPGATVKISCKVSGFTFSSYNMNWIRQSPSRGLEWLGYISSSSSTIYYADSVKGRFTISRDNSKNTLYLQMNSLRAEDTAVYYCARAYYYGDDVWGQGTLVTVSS VL: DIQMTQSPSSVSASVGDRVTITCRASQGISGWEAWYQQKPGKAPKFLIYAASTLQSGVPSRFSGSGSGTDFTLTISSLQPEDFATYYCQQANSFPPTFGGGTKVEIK | 2.11e+06 |
| BAP-143-07-03-12 (antibody, V domains shown, Used as a conjugate with a linker payload (CAB ADC)) VH: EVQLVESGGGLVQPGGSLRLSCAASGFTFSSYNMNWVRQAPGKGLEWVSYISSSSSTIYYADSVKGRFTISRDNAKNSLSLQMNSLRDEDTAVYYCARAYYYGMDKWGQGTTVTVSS VL: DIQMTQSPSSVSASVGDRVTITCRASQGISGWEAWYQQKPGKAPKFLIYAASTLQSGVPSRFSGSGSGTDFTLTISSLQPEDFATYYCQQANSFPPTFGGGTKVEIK | 754000 |
| BAP-143-06-24-16 (antibody, V domains shown, Used as a conjugate with a linker payload (CAB ADC)) VH: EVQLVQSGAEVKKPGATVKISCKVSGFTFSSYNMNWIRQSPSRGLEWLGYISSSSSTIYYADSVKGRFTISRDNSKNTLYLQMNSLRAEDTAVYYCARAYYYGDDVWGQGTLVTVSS VL: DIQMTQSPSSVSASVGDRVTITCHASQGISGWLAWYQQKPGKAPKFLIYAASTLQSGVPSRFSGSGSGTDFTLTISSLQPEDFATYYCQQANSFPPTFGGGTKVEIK | 2.04e+06 |

Read the next record carefully.
Task: Item under review: BAP-143-00-01 (antibody, V domains shown, Used as a conjugate with a linker payload (CAB ADC)) VH: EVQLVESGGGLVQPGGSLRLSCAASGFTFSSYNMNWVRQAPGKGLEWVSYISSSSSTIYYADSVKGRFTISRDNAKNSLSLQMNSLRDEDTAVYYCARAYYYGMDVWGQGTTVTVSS VL: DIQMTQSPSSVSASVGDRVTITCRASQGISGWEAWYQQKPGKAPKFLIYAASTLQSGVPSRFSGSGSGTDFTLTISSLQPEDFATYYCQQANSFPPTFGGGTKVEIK . Reported kon?
Result: 605000
